- Tested on: ryegrass, Italian (Italian ryegrass, Lolium multiflorum)
- test.description: Test A greenhouse herbicide test, pre- and postemergence
- Assay type: in vivo
- stated.conditions: Postemergence, 125 g ai/ha; 0 to 100 scale where 0 is no effect and 100 is complete control
recorded.metric: Plant response rating, Ryegrass, Italian
Give the value as a plain number.

# smiles.string, recorded.metric, experimental.result
measured = [
    ("COC(=O)Oc1c(C)nn(C)c(=O)c1-c1c(C)sc2c(C)cc(C)cc12", "Plant response rating, Ryegrass, Italian", 100),
    ("Cc1ccc2ccccc2c1-c1c(O)c(Cl)nn(C)c1=O", "Plant response rating, Ryegrass, Italian", 100),
]

Prompt: Which Plant response rating, Ryegrass, Italian is reported with ryegrass, Italian (Italian ryegrass, Lolium multiflorum) for this entry: `CC(=O)Oc1c(C#N)nn(C)c(=O)c1-c1c(C)ccc2ccccc12` ?
Response: 90

Prompt: Which Plant response rating, Ryegrass, Italian is reported with ryegrass, Italian (Italian ryegrass, Lolium multiflorum) for this entry: `COc1nn(C)c(=O)c(-c2cccc3ccccc23)c1O` ?
Response: 100

---

// reported Plant response rating, Canarygrass per item
- System: canarygrass (Phalaris minor)
- test.description: Test D controlled growth environment herbicide test, pre- and postemergence
- Type: in vivo
- stated.conditions: Postemergence, 250 g ai/ha; scale 0 to 100 (0 no effect, 100 complete control)
Give the value as a plain number.

Below: 3 molecules and their reported Plant response rating, Canarygrass.
# molecule, experimental.result
data = [
    ("Cc1ccc(-c2c(O)c(Br)nn(C)c2=O)c2ccccc12 [Compound 52]", 0),
    ("COc1nn(C)c(=O)c(-c2c(C)ccc3ccccc23)c1OC(=O)OC(C)C [Compound 36]", 80),
    ("Cc1ccc2ccccc2c1-c1c(O)c(C)nn(C)c1=O [Compound 59]", 90),
]

Prompt: Fill in the blank: the reported Plant response rating, Canarygrass of CC(=O)Oc1c(C)nn(C)c(=O)c1-c1c(C)cc(C)c2ccccc12 [Compound 153] is ____.
Response: 85

---

- Tested on: morningglory (Ipomoea coccinea)
- test.description: Test C greenhouse herbicide test, pre- and postemergence
- Format: in vivo
- stated.conditions: Postemergence, 250 g ai/ha; scale 0 to 100, 0 no effect, 100 complete control; 13 to 15 d
// reported Plant response rating, Morningglory per item

Below: 4 compounds and their reported Plant response rating, Morningglory.
# smiles.string, recorded.metric, experimental.result
records = [
    ("Cc1ccc2ccccc2c1-c1c(O)c(Cl)nn(C)c1=O", "Plant response rating, Morningglory", 100),
    ("CCOC(=O)Oc1c(C)nn(C)c(=O)c1-c1c(CC)ccc2ccccc12", "Plant response rating, Morningglory", 98),
    ("CC(=O)Oc1c(C#N)nn(C)c(=O)c1-c1c(C)ccc2ccccc12", "Plant response rating, Morningglory", 100),
    ("COC(=O)Oc1c(C)nn(C)c(=O)c1-c1c([N+](=O)[O-])ccc2ccccc12", "Plant response rating, Morningglory", 90),
]

Prompt: Which Plant response rating, Morningglory is reported with morningglory (Ipomoea coccinea) for this entry: `Cc1nn(C)c(=O)c(-c2c(C)sc3ccccc23)c1O` ?
Response: 95

Prompt: Which Plant response rating, Morningglory is reported with morningglory (Ipomoea coccinea) for this entry: `CC(=O)Oc1c(C)nn(C)c(=O)c1-c1c(C)sc2c(C)cc(C)cc12` ?
Response: 100

Prompt: Which Plant response rating, Morningglory is reported with morningglory (Ipomoea coccinea) for this entry: `Cc1ccc2ccccc2c1-c1c(O)cnn(C)c1=O` ?
Response: 50

Prompt: Which Plant response rating, Morningglory is reported with morningglory (Ipomoea coccinea) for this entry: `CCC(=O)Oc1c(C)nn(C)c(=O)c1-c1c(C)sc2c(C)cc(C)cc12` ?
Response: 100

Prompt: Which Plant response rating, Morningglory is reported with morningglory (Ipomoea coccinea) for this entry: `COc1nn(C)c(=O)c(-c2c(C)ccc3ccccc23)c1OC(=O)OC(C)C` ?
Response: 100

Prompt: Which Plant response rating, Morningglory is reported with morningglory (Ipomoea coccinea) for this entry: `Cc1nn(C)c(=O)c(-c2cccc3ccc(C#N)cc23)c1O` ?
Response: 98
